# System: Caco-2
# method.summary: cell viability relative to DMSO; higher = less toxic
# applied.conditions: 72 h; 1 nM
assay.metric: cell viability
Number first, unit second: that is the form wanted.

Check out these entries, answers already filled in.
compound="CC[N+](CC)(CC(=O)Nc1c(C)cccc1C)Cc1ccccc1 [denatonium-benzoate]" assay_metric="cell viability" recorded_value=100%
compound=COc1cc(Nc2c(C#N)cnc3cc(OCCCN4CCN(C)CC4)c(OC)cc23)c(Cl)cc1Cl assay_metric="cell viability" recorded_value=95.2%

Returns the measured cell viability for the input compound. Input: Cc1cccc(COc2cccc(/C=C3\C(=O)NN(c4ccccc4)C3=O)c2)c1
100%

Consider the compound shown here: COc1ccc(C(=O)c2ccccc2O)c(O)c1 What is its recorded cell viability?
101%

What value of cell viability has been recorded for this entry: COC(=O)[C@H](CC(C)C)NC(=O)[C@@H](N)CC(C)C
98.1%

I'd like to know its cell viability. The compound in question is CC1(C)O[C@@H]2C[C@H]3[C@@H]4CCC5=CC(=O)C=C[C@]5(C)[C@@]4(F)[C@@H](O)C[C@]3(C)[C@]2(C(=O)CO)O1 [TRIAMCINOLONE ACETONIDE]
94.2%

What value of cell viability has been reported for the following compound? CC(=O)SC[C@@H](C)C(=O)N1CCC[C@H]1C(=O)N[C@@H](Cc1ccccc1)C(=O)O
102%

Looking for the measured cell viability of Nc1sc2c(c1C(=O)c1ccc(Cl)cc1)CCCC2 , can you help?
93.7%

Which cell viability is reported for this compound? CCCC[C@@H](NC(=O)[C@@H](Cc1cn(C(=O)OC)c2ccccc12)NC(=O)[C@H](CC(C)(C)C)NC(=O)N1[C@H](C)CCC[C@@H]1C)C(=O)O
102%

Field request: cell viability | item: CN1CCN(CCCCN2C(=O)CN(/N=C/c3ccc(-c4ccc(Cl)cc4)o3)C2=O)CC1 [azimilide]
97.4%

====

Each entry below carries its reported drug sensitivity score.
# Tested on: Caco-2
# method.summary: drug sensitivity score (DSS) for viability; higher = more toxic; extreme values may be limits of the assay
# applied.conditions: 72 h
Give the figure only, with no unit attached.

Worked cases, answers included:
molecule=CNc1nc(NCc2ccc(NS(C)(=O)=O)cc2Cl)cc(-c2ccccn2)n1 recorded_value=0.9
molecule=O=C(Nc1cccnc1)c1cc(-c2ccnc(F)c2)ccc1OCc1ccccc1 recorded_value=0.4
molecule=C=CC(=O)Nc1cc(Nc2nccc(-c3cn(C)c4ccccc34)n2)c(OC)cc1N(C)CCN(C)C recorded_value=8.8

// returns reported drug sensitivity score for input O=C(O)C(Cl)Cl [dichloroacetate]
0

Request the reported drug sensitivity score associated with N#C/C(=C\c1ccc(O)cc1)C(=O)O
0

So what's the measured drug sensitivity score for this one? Cc1ccc2c(N3CCN(CCc4cccc(N5CCNC5=O)c4)CC3)cccc2n1
0

====

Property: cell viability; scope: individual compounds
# Test system: Caco-2
# method.summary: cell viability relative to DMSO; higher = less toxic
# applied.conditions: 72 h; 10000 nM
The response must be a number in % with no trailing unit.

Consider the worked cases shown below.
compound=O=C(Nc1cccnc1)c1cc(-c2ccnc(F)c2)ccc1OCc1ccccc1 assay_metric="cell viability" recorded_value=86.6
compound=COc1cc(OC)c(C(=O)CCCN2CCCC2)c(OC)c1 assay_metric="cell viability" recorded_value=106
compound=Nc1[nH]cnc2ncnc1-2 assay_metric="cell viability" recorded_value=114
compound="CC[N+](CC)(CC(=O)Nc1c(C)cccc1C)Cc1ccccc1 [denatonium-benzoate]" assay_metric="cell viability" recorded_value=112
compound=O=C(O)Cc1ccc(OCCNC[C@H](O)c2ccccc2)cc1 assay_metric="cell viability" recorded_value=95
compound=Clc1ccc(Cn2c(CN3CCCC3)nc3ccccc32)cc1 assay_metric="cell viability" recorded_value=84.7

Shifting focus to the compound that follows.
// returns reported cell viability for input Cc1ncc(COP(=O)([O-])[O-])c(CN(CCN(CC(=O)O)Cc2c(COP(=O)([O-])O)cnc(C)c2O)CC(=O)O)c1O.[Mn].[Na+].[Na+].[Na+] [Mangafodipir (trisodium)]
135

Source of measurements: the supplement of paper PMC13380429
